Reference source for all entries: patent EP1031349A1

biological target: MMP-1 (Homo sapiens); assay: Automated MMP profiling assay (P218 quenched fluorescence), MMP-1; assay type: biochemical
Sequence (P03956 100-469, species assumed): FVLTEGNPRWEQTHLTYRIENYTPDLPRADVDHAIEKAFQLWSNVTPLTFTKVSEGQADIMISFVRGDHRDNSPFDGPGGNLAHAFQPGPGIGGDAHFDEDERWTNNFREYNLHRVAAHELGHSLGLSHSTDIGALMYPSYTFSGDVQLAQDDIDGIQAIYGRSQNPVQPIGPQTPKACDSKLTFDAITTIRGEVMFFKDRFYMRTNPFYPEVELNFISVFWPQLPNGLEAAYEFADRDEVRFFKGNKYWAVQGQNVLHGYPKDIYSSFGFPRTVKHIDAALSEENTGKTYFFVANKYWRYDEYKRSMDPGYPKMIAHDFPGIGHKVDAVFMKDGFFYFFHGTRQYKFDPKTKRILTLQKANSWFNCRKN
Value type: pKi
Hey, just a heads up that pKi is the negative log base 10 of the concentration in molar.

Lab request: please report pKi under test system MMP-1 (Homo sapiens) for O=C(CC(CCn1nnc2ccccc2c1=O)C(=O)O)c1ccc(-c2ccc(Cl)cc2)cc1 (racemic)
5.62

====

molecular target: MMP-1 (Homo sapiens); assay: Automated MMP profiling assay (P218 quenched fluorescence), MMP-1; format: biochemical; conditions: read-out: MMP-1 Ki
Value type: Ki (µM)
Your answer is read as µM, so omit the unit and give the number.

{"columns": ["Compound", "Ki, µM"],
 "data": [
  ["CCOc1ccc(-c2ccc(C(=O)[C@H]3CC[C@@H](Sc4ccccc4)[C@@H]3C(=O)O)cc2)cc1 (racemic)", 3.7]
]}

Shifting focus to the compound that follows.
Need Ki, item CCOc1ccc(-c2ccc(C(=O)CC(CCN3C(=O)c4ccccc4C3=O)C(=O)O)cc2)cc1 (racemic)
3.4

====

target: MMP-3 (Homo sapiens, UniProt P08254); assay: Automated MMP profiling assay (P218 quenched fluorescence), MMP-3; type: biochemical
Sequence (P08254 100-274 limits assumed): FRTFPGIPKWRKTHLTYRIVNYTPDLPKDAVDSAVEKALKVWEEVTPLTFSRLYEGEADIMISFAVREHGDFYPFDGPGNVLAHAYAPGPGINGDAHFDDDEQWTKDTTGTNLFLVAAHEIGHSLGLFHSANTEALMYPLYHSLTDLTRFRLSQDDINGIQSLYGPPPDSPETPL
Value type: pKi
Hey, just a heads up that pKi is the negative log base 10 of the concentration in molar.

Need pKi, item O=C(CC(CCn1nnc2ccccc2c1=O)C(=O)O)c1ccc(-c2ccc(Cl)cc2)cc1 (racemic) [Example 6]
8.21

====

target: MMP-2 (Homo sapiens); test: Automated MMP profiling assay (P218 quenched fluorescence), MMP-2; assay type: biochemical
Sequence (P08253 110-660): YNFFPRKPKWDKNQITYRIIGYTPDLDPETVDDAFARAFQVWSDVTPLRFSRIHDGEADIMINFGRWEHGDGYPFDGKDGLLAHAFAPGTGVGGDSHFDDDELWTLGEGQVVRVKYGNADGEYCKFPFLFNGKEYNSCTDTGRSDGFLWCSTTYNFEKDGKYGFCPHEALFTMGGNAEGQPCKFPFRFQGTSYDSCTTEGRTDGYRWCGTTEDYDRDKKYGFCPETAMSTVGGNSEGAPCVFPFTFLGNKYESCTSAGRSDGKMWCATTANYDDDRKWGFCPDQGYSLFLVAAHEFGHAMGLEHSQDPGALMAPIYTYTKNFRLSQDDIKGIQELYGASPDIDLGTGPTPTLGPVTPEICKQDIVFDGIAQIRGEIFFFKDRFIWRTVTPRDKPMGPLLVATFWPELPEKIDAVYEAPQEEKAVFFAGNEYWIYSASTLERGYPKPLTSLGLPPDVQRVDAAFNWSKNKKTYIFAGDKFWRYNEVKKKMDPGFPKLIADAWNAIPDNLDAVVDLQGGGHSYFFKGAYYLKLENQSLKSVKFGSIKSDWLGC
Value type: pKi
Hey, just a heads up that pKi is the negative log base 10 of the concentration in molar.

Need pKi, item CCOc1ccc(-c2ccc(C(=O)[C@H]3CC[C@@H](Sc4ccccc4)[C@@H]3C(=O)O)cc2)cc1 (racemic)
9.34
